- measurementDescription: Luminescence Cell-Based Dose Response HTS to Identify Inhibitors of 5'UTR Stem-Loop Driven Prion Protein mRNA Translation in H4 Neuroglioblastoma Cells. [Related pubchem assays: 1827 (Project Summary), 1813 (Primary HTS)]
- Type: functional
The source made the active and inactive calls.
endpointName: EC50

INSERT INTO results (compound, readoutvalue) VALUES
  ('COc1ccc(-c2nc(CS(=O)(=O)CC(=O)NCCCc3ccccc3)c(C)o2)cc1', '> 120 µM (not active)'),
  ('O=C(N/N=C/c1cc2c3c(c1O)CCCN3CCC2)c1ccccc1O', '0.102 µM (active)'),
  ('CN1CCN(C(c2ccc(C(F)(F)F)cc2)c2cc(Cl)c3cccnc3c2O)CC1 (stereo unspecified)', '9.3 µM (active)'),
  ('CC(C)(C)Nc1nc(Nc2ccc([N+](=O)[O-])cc2)nc(NC(C)(C)C)n1', '> 120 µM (not active)'),
  ('CCOc1ccc(-n2c(C)cc(C(=O)CCl)c2C)cc1', '15 µM (active)'),
  ('Cc1ccc(NC(=O)c2ccc3c(c2)OCCO3)cc1C', '5.06 µM (active)');

====

- assayTarget: Voltage-dependent T-type calcium channel subunit alpha-1H (Homo sapiens);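 also: channel activity triggered by adding a high calcium stimulation buffer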
- Sequence (O95180 whole entry): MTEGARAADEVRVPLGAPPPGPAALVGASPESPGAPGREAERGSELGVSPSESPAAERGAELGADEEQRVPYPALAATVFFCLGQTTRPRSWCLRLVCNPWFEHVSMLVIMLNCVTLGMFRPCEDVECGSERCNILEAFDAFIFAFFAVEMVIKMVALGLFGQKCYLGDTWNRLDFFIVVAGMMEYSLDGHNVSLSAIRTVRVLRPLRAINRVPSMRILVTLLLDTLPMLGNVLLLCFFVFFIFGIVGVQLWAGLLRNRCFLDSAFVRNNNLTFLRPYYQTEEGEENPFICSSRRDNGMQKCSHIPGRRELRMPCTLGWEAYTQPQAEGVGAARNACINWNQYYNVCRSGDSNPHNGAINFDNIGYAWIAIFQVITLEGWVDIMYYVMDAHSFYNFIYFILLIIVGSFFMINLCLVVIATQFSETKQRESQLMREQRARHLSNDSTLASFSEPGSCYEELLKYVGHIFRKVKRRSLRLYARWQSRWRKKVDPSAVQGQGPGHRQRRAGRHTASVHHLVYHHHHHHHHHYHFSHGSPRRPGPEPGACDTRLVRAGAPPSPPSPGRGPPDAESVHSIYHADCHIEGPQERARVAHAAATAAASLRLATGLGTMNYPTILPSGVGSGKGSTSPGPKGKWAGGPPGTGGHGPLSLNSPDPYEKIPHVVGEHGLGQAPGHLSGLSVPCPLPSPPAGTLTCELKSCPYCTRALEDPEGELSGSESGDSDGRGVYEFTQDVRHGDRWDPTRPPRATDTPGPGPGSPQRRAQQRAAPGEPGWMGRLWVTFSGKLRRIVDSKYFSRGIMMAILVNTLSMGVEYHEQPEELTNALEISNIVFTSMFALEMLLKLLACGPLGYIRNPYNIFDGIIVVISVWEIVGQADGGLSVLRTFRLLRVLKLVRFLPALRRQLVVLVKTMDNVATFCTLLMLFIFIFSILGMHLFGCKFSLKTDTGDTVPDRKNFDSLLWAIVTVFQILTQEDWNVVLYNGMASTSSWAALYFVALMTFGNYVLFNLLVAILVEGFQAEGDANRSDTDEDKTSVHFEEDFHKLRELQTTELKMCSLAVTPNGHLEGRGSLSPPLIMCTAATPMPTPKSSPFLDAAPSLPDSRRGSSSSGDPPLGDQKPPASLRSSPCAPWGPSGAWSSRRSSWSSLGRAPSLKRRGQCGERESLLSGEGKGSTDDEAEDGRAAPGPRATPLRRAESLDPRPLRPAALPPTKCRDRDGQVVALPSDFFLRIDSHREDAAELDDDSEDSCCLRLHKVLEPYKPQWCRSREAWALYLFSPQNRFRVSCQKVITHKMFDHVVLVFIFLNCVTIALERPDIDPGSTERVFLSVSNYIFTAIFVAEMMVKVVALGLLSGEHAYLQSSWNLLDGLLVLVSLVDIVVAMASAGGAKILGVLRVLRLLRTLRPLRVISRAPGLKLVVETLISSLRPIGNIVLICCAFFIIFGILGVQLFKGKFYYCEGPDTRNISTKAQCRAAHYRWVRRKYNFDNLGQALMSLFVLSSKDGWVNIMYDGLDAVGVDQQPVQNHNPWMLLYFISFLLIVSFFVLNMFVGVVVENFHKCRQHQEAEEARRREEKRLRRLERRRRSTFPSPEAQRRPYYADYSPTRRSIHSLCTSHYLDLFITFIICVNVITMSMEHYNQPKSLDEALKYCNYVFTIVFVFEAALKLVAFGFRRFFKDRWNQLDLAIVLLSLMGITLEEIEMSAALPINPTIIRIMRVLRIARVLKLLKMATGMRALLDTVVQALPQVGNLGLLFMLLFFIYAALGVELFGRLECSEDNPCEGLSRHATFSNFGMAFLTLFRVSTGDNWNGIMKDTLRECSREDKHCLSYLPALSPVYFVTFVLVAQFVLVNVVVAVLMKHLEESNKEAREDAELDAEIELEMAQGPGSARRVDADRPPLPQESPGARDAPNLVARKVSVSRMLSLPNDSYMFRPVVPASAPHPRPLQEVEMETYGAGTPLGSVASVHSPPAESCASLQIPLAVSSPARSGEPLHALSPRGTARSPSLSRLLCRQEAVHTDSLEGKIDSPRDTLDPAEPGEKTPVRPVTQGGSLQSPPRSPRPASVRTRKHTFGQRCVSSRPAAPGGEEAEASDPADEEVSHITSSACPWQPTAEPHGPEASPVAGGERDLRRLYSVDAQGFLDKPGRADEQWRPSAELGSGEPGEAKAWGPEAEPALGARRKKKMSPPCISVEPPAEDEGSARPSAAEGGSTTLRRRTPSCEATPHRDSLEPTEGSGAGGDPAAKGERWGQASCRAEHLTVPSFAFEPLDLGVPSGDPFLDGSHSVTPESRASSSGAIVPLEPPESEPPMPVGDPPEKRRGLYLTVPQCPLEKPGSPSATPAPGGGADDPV
- Type: functional
The source made the active and inactive calls.
endpointName: EC50

INSERT INTO measurements (compound, assaytarget, readoutvalue) VALUES
  ('Cn1cccc1Cc1nnc(SCC(=O)Nc2ccc(Cl)cc2)n1-c1ccc(F)cc1', 'Voltage-dependent T-type calcium channel subunit alpha-1H (Homo sapiens)', '1.32 µM (active)'),
  ('COc1ccc(OC)c(CCNC(=O)CS(=O)(=O)Cc2nc(-c3ccc(C)cc3)oc2C)c1', 'Voltage-dependent T-type calcium channel subunit alpha-1H (Homo sapiens)', '3.8 µM (active)'),
  ('CCCC(=O)N1CCN(c2ccc([N+](=O)[O-])c(NC(C)c3ccccc3)c2)CC1 (centres undefined)', 'Voltage-dependent T-type calcium channel subunit alpha-1H (Homo sapiens)', '5.51 µM (active)'),
  ('COc1cccc(-c2nc(CS(=O)(=O)CC(=O)N3CCc4ccccc4C3)c(C)o2)c1', 'Voltage-dependent T-type calcium channel subunit alpha-1H (Homo sapiens)', '10.8 µM (active)');

====

- assayTarget: Luciferin 4-monooxygenase (Photinus pyralis)
- Sequence (P08659 whole entry): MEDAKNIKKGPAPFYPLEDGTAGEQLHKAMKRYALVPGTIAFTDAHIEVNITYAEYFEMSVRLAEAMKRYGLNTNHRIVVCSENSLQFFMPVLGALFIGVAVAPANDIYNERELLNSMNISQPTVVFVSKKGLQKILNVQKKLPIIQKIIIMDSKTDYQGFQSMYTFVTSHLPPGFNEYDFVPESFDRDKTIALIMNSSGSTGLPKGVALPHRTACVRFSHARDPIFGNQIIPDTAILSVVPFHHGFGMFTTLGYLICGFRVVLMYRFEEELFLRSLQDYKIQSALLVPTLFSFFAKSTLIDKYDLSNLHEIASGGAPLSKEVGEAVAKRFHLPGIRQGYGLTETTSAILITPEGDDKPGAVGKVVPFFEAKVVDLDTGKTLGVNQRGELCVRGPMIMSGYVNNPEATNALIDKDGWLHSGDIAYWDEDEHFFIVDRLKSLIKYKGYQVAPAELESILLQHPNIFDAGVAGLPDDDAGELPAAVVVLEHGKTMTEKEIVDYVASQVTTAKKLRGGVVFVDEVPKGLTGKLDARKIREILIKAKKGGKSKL
- measurementDescription: firefly luciferase enzyme inhibitors, dose response, biochemical, luminescence (AID 1891)
Active and inactive are the calls of the source.
endpointName: EC50

INSERT INTO assay_data (chemsmiles, endpointname, readoutvalue) VALUES
  ('Cc1c(N=C(S)NNC(=O)CCC(=O)O)c(=O)n(-c2ccccc2)n1C', 'EC50', '> 112 µM (not active)'),
  ('O=C(CCCc1ccccc1)Nc1nnc(C(F)(F)F)s1', 'EC50', '> 112 µM (not active)'),
  ('COc1ccc(Oc2nc(-c3ccccc3)ncc2S(=O)(=O)c2ccccc2)cc1', 'EC50', '> 112 µM (not active)'),
  ('c1ccc2nc(-c3nc4ccccc4o3)ccc2c1', 'EC50', '1.36 µM (active)'),
  ('O=C(c1ccco1)N1CCN(Cc2nc(-c3cccs3)no2)CC1', 'EC50', '> 112 µM (not active)'),
  ('CCCCc1nc2sc3c(O)ncnc3c2c2c1CCCC2', 'EC50', '> 112 µM (not active)'),
  ('O=C(OCCCCN1C(=O)c2ccccc2C1=O)c1ccc(S(=O)(=O)N2CCCC2)cc1', 'EC50', '> 112 µM (not active)'),
  ('CCOc1ccc(NC(O)=C2C(=O)NC(=O)NC2=O)cc1', 'EC50', '1.42 µM (active)'),
  ('CCCOC(=O)Nc1ccc(C(N)=O)cc1', 'EC50', '> 112 µM (not active)'),
  ('O=C(CSCc1ccco1)c1cccs1', 'EC50', '> 112 µM (not active)'),
  ('COc1ccc(-c2ccc(SC)nn2)cc1', 'EC50', '1.1 µM (active)');

====

- measurementDescription: cytotoxicity toward DRD oncogenic fibroblasts, dose response, cell-based, non-viral oncogenic, luminescence (AID 1934)
- Assay type: functional
- studyConditions: Homo sapiens
The source made the active and inactive calls.
endpointName: EC50

INSERT INTO results (chemsmiles, readoutvalue) VALUES
  ('COc1ccccc1/C=C1\SC(=S)N(CCC(=O)NCCCn2ccnc2)C1=O', '> 150 µM (not active)'),
  ('CCOc1ccc(-n2c(C)cc(C(=O)CCl)c2C)cc1', '9.56 µM (active)'),
  ('c1ccc2nc(-c3nc4ccccc4o3)ccc2c1', '7.36 µM (active)'),
  ('COc1ccc(/C=N/NC(=O)CCn2cnc(-c3ccccc3)c2-c2ccccc2)cc1', '1.68 µM (active)');

====

Item-by-item account of IC50
- assayTarget: High affinity choline transporter 1 (Homo sapiens)
- Sequence (Q9GZV3 whole entry): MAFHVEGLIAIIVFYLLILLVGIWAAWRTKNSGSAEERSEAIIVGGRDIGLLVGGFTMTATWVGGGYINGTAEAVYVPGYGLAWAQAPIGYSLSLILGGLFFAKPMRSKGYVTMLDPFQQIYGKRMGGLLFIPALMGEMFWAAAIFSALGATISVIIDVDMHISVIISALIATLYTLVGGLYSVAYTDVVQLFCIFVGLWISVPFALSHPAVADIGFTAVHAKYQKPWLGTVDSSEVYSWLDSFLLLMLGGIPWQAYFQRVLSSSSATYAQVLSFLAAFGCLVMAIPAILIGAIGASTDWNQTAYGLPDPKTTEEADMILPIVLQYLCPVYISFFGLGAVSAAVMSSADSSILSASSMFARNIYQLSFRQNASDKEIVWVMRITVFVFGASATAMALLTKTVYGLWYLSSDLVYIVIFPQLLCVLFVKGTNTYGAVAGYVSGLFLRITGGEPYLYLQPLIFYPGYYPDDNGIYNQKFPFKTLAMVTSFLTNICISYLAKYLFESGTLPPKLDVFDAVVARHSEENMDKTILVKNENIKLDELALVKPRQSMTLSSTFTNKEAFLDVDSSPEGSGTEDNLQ
- measurementDescription: CHT inhibitors, dose response, cell-based, 5-point CRC, membrane potential dye (AID 504840)
- Type: functional
The source made the active and inactive calls.
endpointName: IC50

INSERT INTO results (molecule, readoutvalue) VALUES
  ('CC(NC(=O)NC1CCCCC1)c1ccc2c(c1)OCO2 (configuration not stated)', '3.47 µM (active)'),
  ('O=C(Nc1nc2ccc(S(=O)(=O)N3CCCCC3)cc2s1)c1cccnc1', '13.2 µM (active)'),
  ('COc1ccc(N(C)S(=O)(=O)c2cccc(C(=O)NC3CCCCC3C)c2)cc1 (configuration not stated)', '4.79 µM (active)'),
  ('CN1CCN(S(=O)(=O)c2cccc(C(=O)Nc3ccc(Br)cc3Br)c2)CC1', '12.6 µM (active)'),
  ('CCCN1CCN(CCCN=C(S)Nc2ccc3nc(N4CCN(CC)CC4)cc(C)c3c2)CC1', '2.3 µM (active)'),
  ('COc1ccc(-c2nc3ccc(C(=O)NCCCN4CCOCC4)cc3nc2-c2ccc(OC)cc2)cc1', '13.2 µM (active)'),
  ('O=C1NC(=S)S/C1=C\c1coc2ccccc2c1=O', '14.5 µM (active)');

====

- assayTarget: Hepatocyte nuclear factor 4-alpha (Homo sapiens);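 also: biochemical luminescence-based dose-response counterscreen measuring inhibition of HNF4 dimerization, run alongside a screen for blockers of ABHD5–perilipin-5 interaction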;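 also: split luciferase complementation of HNF4 fusion proteins in cell lysate measuring dimerization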
- Sequence (P41235 whole entry, the tested form may be a part): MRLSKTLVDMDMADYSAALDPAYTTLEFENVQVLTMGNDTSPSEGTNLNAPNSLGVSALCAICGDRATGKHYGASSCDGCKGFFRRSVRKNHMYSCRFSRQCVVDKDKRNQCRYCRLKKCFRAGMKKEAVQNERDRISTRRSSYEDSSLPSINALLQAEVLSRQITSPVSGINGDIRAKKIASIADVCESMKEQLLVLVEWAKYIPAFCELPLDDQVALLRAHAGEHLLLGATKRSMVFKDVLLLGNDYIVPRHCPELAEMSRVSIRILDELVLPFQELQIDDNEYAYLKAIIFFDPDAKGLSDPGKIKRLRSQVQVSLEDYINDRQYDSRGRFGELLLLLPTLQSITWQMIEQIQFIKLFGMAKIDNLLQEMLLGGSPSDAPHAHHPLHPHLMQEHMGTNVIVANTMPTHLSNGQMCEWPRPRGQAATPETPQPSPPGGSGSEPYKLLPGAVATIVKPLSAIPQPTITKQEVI
- Type: functional, cell-based
Calls of active or inactive are those of the source.
Possible outcomes: Y for active, N for inactive

INSERT INTO results (chemsmiles, category) VALUES
  ('Cc1nnc(NC(=O)c2nc(S(=O)(=O)Cc3ccccc3C)ncc2Cl)s1', 'Y'),
  ('CC(C)c1ccc(N2C=Nc3ccc(C(C)C)cc3C2)cc1', 'N'),
  ('Cc1ccc(NC(=O)CSc2nnc(-c3ccco3)c(-c3ccco3)n2)cc1', 'Y'),
  ('CC(=O)Oc1c(Cl)cc(N(C(C)=O)S(=O)(=O)c2ccccc2)c2ccccc12', 'N');

====

Entries and their EC50 values follow.
- measurementDescription: inhibitors of intracellular T. cruzi replication, confirmation, NIH3T3 host cells, beta-gal luminescence (AID 2044);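 also: intracellular parasites grown in NIH/3T3 mouse fibroblasts as host cells; luminescent beta-galactosidase reporter signal from transgenic T. cruzi replicating inside host cells; inhibitors lower the luminescence signal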
- Format: functional, cell-based
The source made the active and inactive calls.
endpointName: EC50

INSERT INTO assay_data (compound, endpointname, readoutvalue) VALUES
  ('CC(=O)c1cccc(Nc2cc(C)nc3c(C)cc(C)cc23)c1', 'EC50', '1420 nM (active)'),
  ('COc1cccc(CNC(=O)CCC2CCCN(C/C=C/c3ccccc3OC)C2)c1 (stereo not drawn)', 'EC50', '< 100 nM (active)'),
  ('S=C(NCc1ccc(Cl)cc1)NC1CCN(Cc2ccccc2)CC1', 'EC50', '2860 nM (active)'),
  ('CN1CCN(C(c2ccc(C(F)(F)F)cc2)c2cc(Cl)c3cccnc3c2O)CC1 (stereo not drawn)', 'EC50', '1320 nM (active)'),
  ('C/C(=N/Nc1ccnc2cc(Cl)ccc12)c1ccc(N)cc1', 'EC50', '3310 nM (active)'),
  ('Cc1cc(/C=C2/NC(=O)N(Cc3ccccc3F)C2=O)c(C)n1C(C)C', 'EC50', '154 nM (active)'),
  ('Cc1[nH]c2ccccc2c1C(=O)CN1CC=C(c2ccccc2)CC1', 'EC50', '857 nM (active)'),
  ('CCN1CCN(CCNC(=O)c2ccc(/C=C3/Sc4ccccc4N(Cc4cccc(C)c4)C3=O)cc2)CC1', 'EC50', '1290 nM (active)');

====

compounds and their reported AC50
- assayTarget: Cytochrome P450 2C9 (Homo sapiens, UniProt P11712)
- Sequence (P11712 whole entry): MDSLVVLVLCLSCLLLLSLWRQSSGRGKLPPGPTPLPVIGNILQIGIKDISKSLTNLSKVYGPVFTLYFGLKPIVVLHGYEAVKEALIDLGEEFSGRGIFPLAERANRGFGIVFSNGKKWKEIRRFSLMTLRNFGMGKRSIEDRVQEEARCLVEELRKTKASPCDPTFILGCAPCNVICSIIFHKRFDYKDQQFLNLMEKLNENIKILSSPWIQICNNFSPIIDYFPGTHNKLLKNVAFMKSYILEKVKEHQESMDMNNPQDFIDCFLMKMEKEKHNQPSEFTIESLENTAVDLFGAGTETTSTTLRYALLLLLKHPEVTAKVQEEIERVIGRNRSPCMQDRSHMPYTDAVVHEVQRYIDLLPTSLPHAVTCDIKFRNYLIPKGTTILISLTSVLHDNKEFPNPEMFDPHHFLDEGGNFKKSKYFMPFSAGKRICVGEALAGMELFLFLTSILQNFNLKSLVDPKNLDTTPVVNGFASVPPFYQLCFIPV
endpointName: AC50

INSERT INTO results (chemsmiles, assaytarget, endpointname, readoutvalue) VALUES
  ('CCc1noc(C)c1C(=O)Nc1nc(-c2cc(C)ccc2C)c(C)s1', 'Cytochrome P450 2C9 (Homo sapiens, UniProt P11712)', 'AC50', '7.94 µM (inconclusive)'),
  ('COc1ccc(CNc2ncncc2-c2ccccc2OC)c(OC)c1', 'Cytochrome P450 2C9 (Homo sapiens, UniProt P11712)', 'AC50', '0.794 µM (inconclusive)'),
  ('CC(C)(C)C(=O)OCc1cn(-c2ccc(Cl)cc2)nn1', 'Cytochrome P450 2C9 (Homo sapiens, UniProt P11712)', 'AC50', '28.2 µM (inconclusive)'),
  ('CCC(=O)NC(Nc1sc2c(c1C(=O)OC)CCCC2)(C(F)(F)F)C(F)(F)F', 'Cytochrome P450 2C9 (Homo sapiens, UniProt P11712)', 'AC50', '1.26 µM (inconclusive)'),
  ('C[C@@H](C(=O)O)c1ccc(C(=O)c2ccccc2)s1', 'Cytochrome P450 2C9 (Homo sapiens, UniProt P11712)', 'AC50', '15.8 µM (inconclusive)'),
  ('O=C1CN2CCN(CC2)CC(=O)Nc2ccc(cc2)S(=O)(=O)c2ccc(cc2)NC(=O)CN2CCN(CC2)CC(=O)Nc2ccc(cc2)S(=O)(=O)c2ccc(cc2)N1', 'Cytochrome P450 2C9 (Homo sapiens, UniProt P11712)', 'AC50', '0.398 µM (inconclusive)'),
  ('COC(=O)C1CCN(c2cc(=O)n(C3CCCCC3)c(=O)[nH]2)CC1', 'Cytochrome P450 2C9 (Homo sapiens, UniProt P11712)', 'AC50', '7.94 µM (inconclusive)'),
  ('CCC(=O)N[C@@H]1CCc2cccc(OC)c2C1', 'Cytochrome P450 2C9 (Homo sapiens, UniProt P11712)', 'AC50', '15.8 µM (inconclusive)'),
  ('COc1ccccc1-n1c(SCC(=O)N2CCCC2)nc2cccnc21', 'Cytochrome P450 2C9 (Homo sapiens, UniProt P11712)', 'AC50', '1 µM (inconclusive)'),
  ('Nc1ccc(Oc2ccc3nc(-c4ccccc4)c(-c4ccc([N+](=O)[O-])cc4)nc3c2)cc1', 'Cytochrome P450 2C9 (Homo sapiens, UniProt P11712)', 'AC50', '3.98 µM (inconclusive)');
